- system-under-test: Mcl-1 protein (UniProtKB primary accession number: Q07820) (Homo sapiens, UniProt Q07820)
- Sequence (Q07820 whole entry): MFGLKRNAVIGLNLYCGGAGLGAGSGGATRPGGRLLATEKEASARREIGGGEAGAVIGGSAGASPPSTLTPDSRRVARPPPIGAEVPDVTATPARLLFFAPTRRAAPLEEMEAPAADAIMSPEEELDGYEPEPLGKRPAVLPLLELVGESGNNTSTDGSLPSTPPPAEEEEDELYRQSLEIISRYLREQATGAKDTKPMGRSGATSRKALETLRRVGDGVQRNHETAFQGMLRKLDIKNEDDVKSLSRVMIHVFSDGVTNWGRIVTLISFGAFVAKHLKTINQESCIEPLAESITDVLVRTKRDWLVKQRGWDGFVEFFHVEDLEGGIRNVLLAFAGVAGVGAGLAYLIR
- assay-comment: Inhibition of Mcl-1 by fluorescence polarisation, Method 1
- Type: binding
- run-parameters: fluorescence polarisation test; Method 2 values are underlined in the patent (underlining not visible here); read-out: IC50 (M) Mcl-1 FP
readout-label: IC50 (M)

Some molecules with recorded IC50:
molecule	endpoint-unit	IC50
Cc1c(-c2c(-c3ccco3)sc3ncnc(OC(Cc4ccccc4OCC4CCO4)C(=O)O)c23)ccc(OCCN2CCN(C)CC2)c1Cl (centres unmarked)	M	5.7e-09
COc1ccnc(COc2ccccc2CC(Oc2ncnc3sc(-c4ccco4)c(-c4ccc(OCCN5CCN(C)CC5)c(Cl)c4C)c23)C(=O)O)c1 (centres unmarked)	M	1.4e-08
COc1ccccc1CC(Oc1ncnc2sc(-c3ccco3)c(-c3ccc(OCCN4CCN(C)C(=O)C4)c(Cl)c3C)c12)C(=O)O (centres unmarked)	M	6e-09

P. Cc1cnc(COc2ccccc2CC(Oc2ncnc3sc(-c4ccco4)c(-c4ccc(OCCN5CCN(C)CC5)c(Cl)c4C)c23)C(=O)O)cn1 (centres unmarked)
Q. Cc1c(-c2c(-c3ccco3)sc3ncnc(OC(Cc4ccccc4OCc4ccnn4-c4ccccc4)C(=O)O)c23)ccc(OCCN2CCN(C)CC2)c1Cl (centres unmarked)
R. Cc1c(-c2c(-c3ccc(F)o3)sc3ncnc(OC(Cc4ccccc4OCc4cnccn4)C(=O)O)c23)ccc(OCCN2CCN(C)CC2)c1Cl (centres unmarked)
S. Cc1c(-c2c(-c3ccco3)sc3ncnc(OC(Cc4ccccc4OCc4nccc5ccccc45)C(=O)O)c23)ccc(OCCN2CCN(C)CC2)c1Cl (centres unmarked)
T. Cc1c(-c2c(-c3ccco3)sc3ncnc(OC(Cc4ccccc4OC4CCCC4)C(=O)O)c23)ccc(OCCN2CCN(C)CC2)c1Cl (centres unmarked)
Query: Please rank these molecules by IC50 in descending order. # output: labels, in the requested order
Reply: S, T, P, R, Q
(S: 4.8e-08 M, T: 1.6e-08 M, P: 8.2e-09 M, R: 5.5e-09 M, Q: 2e-09 M)

----------
- system-under-test: Mcl-1 protein (UniProtKB primary accession number: Q07820) (Homo sapiens, UniProt Q07820)
- assay-comment: Inhibition of Mcl-1 by fluorescence polarisation, Method 1
- Format: binding
- run-parameters: fluorescence polarisation test; Method 2 values are underlined in the patent (underlining not visible here); read-out: IC50 (M) Mcl-1 FP
readout-label: IC50 (M)

> print(dat)
                                   compound  readout.label  reported.value
1  CCn1nccc1COc1ccccc1CC(Oc1ncnc2sc(-c3ccco3)c(-c3ccc(OCCN4CCN(C)CC4)c(Cl)c3C)c12)C(=O)O (stereo not drawn)           IC50         9.1e-09
2  Cc1cc(COc2ccccc2CC(Oc2ncnc3sc(-c4ccco4)c(-c4ccc(OCCN5CCN(C)CC5)c(Cl)c4C)c23)C(=O)O)n(C)n1 (stereo not drawn)           IC50         8.4e-09
3  Cc1c(-c2c(-c3ccc(F)cc3)sc3ncnc(OC(Cc4ccccc4OCc4ccnc(-c5cccs5)n4)C(=O)O)c23)ccc(OCCN2CCN(C)CC2)c1Cl (stereo not drawn)           IC50         7.8e-09

P. COc1cc(-c2sc3ncnc(OC(Cc4ccccc4OC)C(=O)O)c3c2-c2ccc(OCCN3CCN(C)CC3)c(Cl)c2C)ccc1F (stereo not drawn)
Q. Cc1c(-c2c(-c3ccc(F)cc3)sc3ncnc(OC(Cc4ccccc4OCc4ncncc4Br)C(=O)O)c23)ccc(OCCN2CCN(C)CC2)c1Cl (stereo not drawn)
Query: Pick one: P or Q . Which has the bigger IC50 number? Lab note: record the label of whichever item you select.
Reply: Q

The origin of these recorded values is patent US9670227B2.
